tgt: T1, rat α-CGRP (1-37) (rat, C-terminal amide; N-terminal biotin when captured on the SA chip)
T1 construct: also called rat α (1-37); α-rat
T1 peptide: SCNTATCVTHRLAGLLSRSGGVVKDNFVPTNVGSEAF
experiment: Biacore, 37°C, Fab over CGRP on SA chip
Method: Biacore assay for affinity determination. […] All Biacore assays were conducted in HBS-EP running buffer (10 mM HEPES pH 7.4, 150 mM NaCl, 3 mM EDTA, 0.005% v/v polysorbate P20). CGRP surfaces were prepared by diluting the N-biotinylated CGRP to a concentration of less than 0.001 mg/mL into HBS-EP buffer and injecting it across the SA sensor chip using variable contact times. […] Samples were typically injected for 1 minute at 100 μL/min and dissociation times of at least 10 minutes were allowed. […]
attribute_measured: koff

Here is how some binders turned out for koff.
G1 variant M13 Fab (Fab, V domains shown, Fab; constant domains as m1) VH: EVQLVESGGGLVQPGGSLRLSCAASGFTFSNYWISWVRQAPGKGLEWVAEIRSESDASATHYAEAVKGRFTISRDNAKNSLYLQMNSLRAEDTAVYYCTGYFDYGLAIQNYWGQGTLVTVSS VL: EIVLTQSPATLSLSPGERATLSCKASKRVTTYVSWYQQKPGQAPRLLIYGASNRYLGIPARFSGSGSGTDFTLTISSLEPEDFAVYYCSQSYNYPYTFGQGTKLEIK = 0.00184 s⁻¹
G1 variant M50 Fab (Fab, V domains shown, Fab; constant domains as m1) VH: EVQLVESGGGLVQPGGSLRLSCAASGFTFSNYWISWVRQAPGKGLEWVAEIRSKSDRSATHYAEAVKGRFTISRDNAKNSLYLQMNSLRAEDTAVYYCTVYFDYGLAIQNYWGQGTLVTVSS VL: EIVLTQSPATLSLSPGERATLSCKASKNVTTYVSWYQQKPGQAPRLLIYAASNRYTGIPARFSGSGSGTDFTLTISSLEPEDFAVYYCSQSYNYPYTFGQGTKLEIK = 0.0053 s⁻¹

QUERY: Quick one: give measured koff for G1 variant M70 Fab (Fab, V domains shown, Fab; constant domains as m1; printed L561 read as L56I) VH: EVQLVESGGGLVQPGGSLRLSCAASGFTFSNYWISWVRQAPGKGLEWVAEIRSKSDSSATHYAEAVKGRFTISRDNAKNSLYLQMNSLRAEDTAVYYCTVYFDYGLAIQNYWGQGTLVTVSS VL: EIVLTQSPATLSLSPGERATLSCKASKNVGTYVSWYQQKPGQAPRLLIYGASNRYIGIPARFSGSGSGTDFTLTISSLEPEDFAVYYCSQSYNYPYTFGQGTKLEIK
RESULT: 0.00607 s⁻¹

meta.source: patent US20190071490A1
